Biological target: UniProt:P45984
Sequence (P45984 whole entry): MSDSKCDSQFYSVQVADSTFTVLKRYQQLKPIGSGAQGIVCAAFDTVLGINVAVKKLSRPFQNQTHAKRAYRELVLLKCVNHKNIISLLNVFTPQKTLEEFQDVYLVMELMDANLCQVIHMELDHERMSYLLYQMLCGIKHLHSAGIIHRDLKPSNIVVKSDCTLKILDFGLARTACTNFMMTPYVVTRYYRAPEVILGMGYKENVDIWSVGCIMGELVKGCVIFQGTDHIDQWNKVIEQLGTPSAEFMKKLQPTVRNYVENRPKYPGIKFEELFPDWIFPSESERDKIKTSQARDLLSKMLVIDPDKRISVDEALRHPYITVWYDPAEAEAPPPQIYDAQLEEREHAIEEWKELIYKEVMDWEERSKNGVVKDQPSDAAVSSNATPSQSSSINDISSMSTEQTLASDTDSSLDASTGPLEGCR
Assay: Promega NanoBRET intracellular target engagement (tracer K10 displacement), JNK2
The entries below come with measured log10 of IC50 values attached.
# values: log10(IC50), units nM

Solved entries:
molecule	log10 of IC50
O=C(Nc1cncnc1)c1cc2c(-c3cnc4[nH]ccc4c3)cccc2s1 [CDD-3015]	3.51
NC(=O)c1cccc(NC(=O)c2cc3c(-c4cnc5[nH]ccc5c4)cccc3s2)c1 [CDD-2936]	2.89
CN(C)C(=O)c1cc(O)cc(NC(=O)c2cc3c(-c4cnc5[nH]ccc5c4)cccc3s2)c1 [CDD-2937]	3.16
CNCc1ccc(NC(=O)c2ccc3ncc(-c4cnc5[nH]ccc5c4)n3c2)cc1 [CDD-2488]	4.13
CNCc1ccc(NC(=O)c2ccn3ncc(-c4cncc5ccccc45)c3c2)cc1 [CDD-2347]	3.00

// next item, log10 of IC50 requested
Please fill in: log10 of IC50 reported for COc1ccc(NC(=O)c2cc3c(-c4cnc5[nH]ccc5c4)cccc3s2)cc1C(=O)N1CCOCC1 [CDD-2635] = 2.51

* * *

Target: JNK1 (Homo sapiens)
Sequence (P45983 whole entry): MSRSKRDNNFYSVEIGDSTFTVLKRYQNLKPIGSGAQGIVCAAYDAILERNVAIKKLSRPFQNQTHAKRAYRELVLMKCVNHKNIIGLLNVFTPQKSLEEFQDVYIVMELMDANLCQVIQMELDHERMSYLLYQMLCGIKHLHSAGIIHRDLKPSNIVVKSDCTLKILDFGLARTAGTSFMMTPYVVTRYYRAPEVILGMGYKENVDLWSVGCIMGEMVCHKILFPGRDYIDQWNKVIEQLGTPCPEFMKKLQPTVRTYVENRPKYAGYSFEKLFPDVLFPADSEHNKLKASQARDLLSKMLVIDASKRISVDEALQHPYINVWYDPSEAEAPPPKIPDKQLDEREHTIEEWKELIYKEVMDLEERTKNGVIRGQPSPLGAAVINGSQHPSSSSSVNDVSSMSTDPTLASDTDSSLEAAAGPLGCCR
Assay: JNK1 kinase (intrinsic ATPase, Kinase-Glo) assay
Assay type: biochemical
parameter: pKd
# pKd is unitless: minus log10 of the molar concentration; print number only

structure	tested target	pKd
CNC(=O)c1cc(NC(=O)c2cc3c(-c4cnc5[nH]ccc5c4)cccc3s2)ccc1OC	JNK1 (Homo sapiens)	8.82
CNCc1ccc(NC(=O)c2ccn3ncc(-c4cncc5ccccc45)c3c2)cc1	JNK1 (Homo sapiens)	9.41
CNC(=O)c1ccn2ncc(-c3cnc4[nH]ccc4c3)c2c1	JNK1 (Homo sapiens)	8.77
CN(C)Cc1ccc(NC(=O)c2ccn3ncc(-c4cnc5[nH]ccc5c4)c3c2)cc1	JNK1 (Homo sapiens)	9.60
O=C(Nc1cccc(C(=O)N2CCCCC2)c1)c1cc2c(-c3cnc4[nH]ccc4c3)cccc2s1	JNK1 (Homo sapiens)	9.17
CN(C)CCNC(=O)c1cc2c(-c3cnc4[nH]ccc4c3)cccc2s1	JNK1 (Homo sapiens)	7.88
Cc1ccc(NC(=O)c2ccn3ncc(-c4cnc5[nH]ccc5c4)c3c2)cc1	JNK1 (Homo sapiens)	9.44
COc1ccc(NC(=O)c2cc3c(-c4cnc5[nH]ccc5c4)cccc3s2)cc1C(=O)N1CCOCC1	JNK1 (Homo sapiens)	9.80

Please fill in: pKd reported for Cc1ccc(NC(=O)c2ccn3ncc(-c4cncc5ccccc45)c3c2)cc1 = 9.55

Please fill in: pKd reported for CN(C)C(=O)c1cc(NC(=O)c2cc3c(-c4cnc5[nH]ncc5c4)cccc3s2)ccc1O = 8.45

Please fill in: pKd reported for CN(C)C(=O)c1cc(NC(=O)c2nc3c(-c4cnc5[nH]ccc5c4)cccc3s2)ccc1O = 9.57

* * *

Target: MYLK (Homo sapiens, UniProt Q15746)
Sequence (Q15746 whole entry): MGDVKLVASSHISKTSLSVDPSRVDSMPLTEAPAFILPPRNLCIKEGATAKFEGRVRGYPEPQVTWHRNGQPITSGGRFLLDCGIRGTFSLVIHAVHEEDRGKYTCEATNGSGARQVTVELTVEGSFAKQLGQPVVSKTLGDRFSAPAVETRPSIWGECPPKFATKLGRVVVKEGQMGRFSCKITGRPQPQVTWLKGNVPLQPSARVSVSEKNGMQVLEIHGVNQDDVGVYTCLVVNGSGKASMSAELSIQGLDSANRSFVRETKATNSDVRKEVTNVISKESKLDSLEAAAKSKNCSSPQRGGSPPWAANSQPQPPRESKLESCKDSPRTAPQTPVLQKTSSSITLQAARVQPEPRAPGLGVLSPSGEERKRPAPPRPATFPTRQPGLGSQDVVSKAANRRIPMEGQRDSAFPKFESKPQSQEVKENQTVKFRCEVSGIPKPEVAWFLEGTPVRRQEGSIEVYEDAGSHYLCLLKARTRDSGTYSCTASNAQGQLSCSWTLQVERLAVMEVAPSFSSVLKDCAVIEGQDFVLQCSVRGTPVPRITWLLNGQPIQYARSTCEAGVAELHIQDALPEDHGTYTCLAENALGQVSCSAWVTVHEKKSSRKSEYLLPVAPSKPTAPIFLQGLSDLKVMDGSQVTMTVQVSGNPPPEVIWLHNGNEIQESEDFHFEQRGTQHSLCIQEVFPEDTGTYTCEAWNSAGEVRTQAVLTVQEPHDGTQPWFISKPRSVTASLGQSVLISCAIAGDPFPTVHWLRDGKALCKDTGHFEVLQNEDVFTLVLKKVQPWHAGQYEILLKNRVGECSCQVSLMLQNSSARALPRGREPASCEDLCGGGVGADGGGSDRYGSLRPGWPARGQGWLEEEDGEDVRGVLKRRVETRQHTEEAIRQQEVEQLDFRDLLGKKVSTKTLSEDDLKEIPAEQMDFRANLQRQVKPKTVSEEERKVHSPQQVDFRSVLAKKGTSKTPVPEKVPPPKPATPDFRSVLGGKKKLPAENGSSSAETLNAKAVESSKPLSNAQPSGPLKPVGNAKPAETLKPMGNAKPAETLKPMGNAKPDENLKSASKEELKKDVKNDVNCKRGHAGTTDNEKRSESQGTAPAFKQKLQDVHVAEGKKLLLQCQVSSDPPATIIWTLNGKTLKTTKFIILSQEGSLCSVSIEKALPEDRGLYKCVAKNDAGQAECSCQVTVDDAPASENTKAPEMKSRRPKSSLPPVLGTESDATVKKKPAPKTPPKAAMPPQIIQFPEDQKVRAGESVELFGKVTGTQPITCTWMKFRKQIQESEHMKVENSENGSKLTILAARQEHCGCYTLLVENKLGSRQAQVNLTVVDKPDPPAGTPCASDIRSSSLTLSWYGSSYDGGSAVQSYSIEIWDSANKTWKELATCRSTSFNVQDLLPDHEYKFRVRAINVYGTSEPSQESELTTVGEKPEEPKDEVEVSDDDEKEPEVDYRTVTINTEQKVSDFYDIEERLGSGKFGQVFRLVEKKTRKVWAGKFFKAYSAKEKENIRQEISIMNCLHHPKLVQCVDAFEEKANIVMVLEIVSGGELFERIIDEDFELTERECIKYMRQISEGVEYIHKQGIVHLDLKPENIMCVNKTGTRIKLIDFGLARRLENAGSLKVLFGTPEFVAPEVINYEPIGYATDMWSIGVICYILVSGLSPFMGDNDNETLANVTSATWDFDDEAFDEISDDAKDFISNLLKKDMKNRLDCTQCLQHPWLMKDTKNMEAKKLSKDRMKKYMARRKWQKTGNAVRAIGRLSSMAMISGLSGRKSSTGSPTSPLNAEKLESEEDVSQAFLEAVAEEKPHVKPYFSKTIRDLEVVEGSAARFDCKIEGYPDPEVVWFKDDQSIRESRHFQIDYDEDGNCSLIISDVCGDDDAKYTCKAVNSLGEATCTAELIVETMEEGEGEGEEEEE
The entries below come with measured pKd values attached.
# pKd is unitless: minus log10 of the molar concentration; print number only

structure	tested target	pKd
CNCc1ccc(NC(=O)c2ccn3ncc(-c4cnc5[nH]ccc5c4)c3c2)cc1	MYLK (Homo sapiens, UniProt Q15746)	6.35
O=C(Nc1ccc(F)cc1)c1ccn2ncc(-c3cnc4[nH]ccc4c3)c2c1	MYLK (Homo sapiens, UniProt Q15746)	6.03

Please fill in: pKd reported for CN(C)Cc1ccc(NC(=O)c2ccn3ncc(-c4cnc5[nH]ccc5c4)c3c2)cc1 = 6.30
